B1: EIF5 (parent)
chain: KQTIGNSCKACGYRGMLDTHHKLC

variants of: B1; experiment: protein stability index of a GFP-peptide fusion (GPS, HEK-293T) (PSI 1-6); higher = more stable; conditions: c terminus: a fixed tail appended;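 also: lentivirally expressed fusions sorted by FACS into six bins by GFP to DsRed ratio, PSI derived from sequencing read proportions per bin multiplied by bin number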
Hi there, I'd appreciate the recorded protein stability index for every entry that follows.
Form rule: numeric answer, no unit written next to it.

Qu. So what does the record say about protein stability index for `G12E` ?
Ans. 2.93

Qu. So what does the record say about protein stability index for `T3C` ?
Ans. 2.92

Qu. So what does the record say about protein stability index for `L17Y` ?
Ans. 3.1

Qu. So what does the record say about protein stability index for `D18Y` ?
Ans. 2.09

Qu. So what does the record say about protein stability index for `L23G` ?
Ans. 3.93

Qu. So what does the record say about protein stability index for `C11R` ?
Ans. 1.61

Qu. So what does the record say about protein stability index for `C11P` ?
Ans. 1.92

Qu. So what does the record say about protein stability index for `K9H` ?
Ans. 3.08

Qu. So what does the record say about protein stability index for `R14Y` ?
Ans. 2.64

Qu. So what does the record say about protein stability index for `S7M` ?
Ans. 3.58

Qu. So what does the record say about protein stability index for `C11W` ?
Ans. 2.06

Qu. So what does the record say about protein stability index for `D18K` ?
Ans. 2.46
